tested on: Zea Mays (ZEAMX); experiment: B2 Post-Emergence Efficacy Test 2; type: in vivo; conditions: 250 g/ha, after 13 days
Items are presented alongside their recorded percentage damage caused to the plant, five point scale, ZEAMX.

Past entries and their recorded results:
compound: Cc1nn(C)c(=O)c(-c2c(F)ccc(Cl)c2CCc2ccc3c(c2)OC(C)(C)O3)c1O [Compound 1.361]
assayedSystem: Zea Mays (ZEAMX)
result: 4 (4=60-79%)

compound: Cc1nn(C)c(=O)c(-c2c(F)ccc(Cl)c2CCc2ccc3c(cnn3C)c2)c1O [Compound 1.354]
assayedSystem: Zea Mays (ZEAMX)
result: 4 (4=60-79%)

compound: Cc1nn(C)c(=O)c(-c2c(F)ccc(Cl)c2CCc2ccc3ccn(C)c3c2)c1O [Compound 1.355]
assayedSystem: Zea Mays (ZEAMX)
result: 1 (1=0-19%)

compound: Cc1nn(C)c(=O)c(-c2c(F)ccc(Cl)c2CCc2ccc3c(ccn3C)c2)c1O [Compound 1.356]
assayedSystem: Zea Mays (ZEAMX)
result: 2 (2=20-39%)

compound: Cc1nn(C)c(=O)c(-c2c(F)ccc(Cl)c2CCc2cccc3ccccc23)c1O [Compound 1.044]
assayedSystem: Zea Mays (ZEAMX)
result: 1 (1=0-19%)

stdin: Recorded percentage damage caused to the plant, five point scale, ZEAMX for Cc1nn(C)c(=O)c(-c2c(F)ccc(Cl)c2CCc2ccc3ccsc3c2)c1O [Compound 1.347] , please?
stdout: 4 (4=60-79%)

stdin: Recorded percentage damage caused to the plant, five point scale, ZEAMX for Cc1nn(C)c(=O)c(-c2c(F)ccc(Cl)c2/C=C/c2cn3ccnc3cn2)c1O [Compound 2.363] , please?
stdout: 0

stdin: Recorded percentage damage caused to the plant, five point scale, ZEAMX for Cc1nn(C)c(=O)c(-c2c(F)ccc(Cl)c2CCc2ccc3c(C)noc3c2)c1O [Compound 1.351] , please?
stdout: 5 (5=80-100%)

----------
tested on: Zea Mays (ZEAMX); test: B4 Pre-Emergence Efficacy Test 2; assay type: in vivo; conditions: 250 g/ha, after 13 days
Items are presented alongside their recorded percentage damage caused to the plant, five point scale, ZEAMX.

Past entries and their recorded results:
compound: Cc1nn(C)c(=O)c(-c2c(F)ccc(Cl)c2CCc2ccc3occc3c2)c1O [Compound 1.346]
result: 1 (1=0-19%)

compound: Cc1nn(C)c(=O)c(-c2c(F)ccc(Cl)c2CCc2ccc3c(ccn3C)c2)c1O [Compound 1.356]
result: 0

compound: Cc1nn(C)c(=O)c(-c2c(F)ccc(Cl)c2CCc2ccc3sccc3c2)c1O [Compound 1.348]
result: 1 (1=0-19%)

compound: Cc1nn(C)c(=O)c(-c2c(F)ccc(Cl)c2CCc2ccc3oc(=O)[nH]c3c2)c1O [Compound 1.352]
result: 4 (4=60-79%)

compound: Cc1nn(C)c(=O)c(-c2c(F)ccc(Cl)c2CCc2ccc3c(c2)OC(C)(C)O3)c1O [Compound 1.361]
result: 1 (1=0-19%)

compound: Cc1nn(C)c(=O)c(-c2c(F)ccc(Cl)c2CCc2ccc3scnc3c2)c1O [Compound 1.350]
result: 4 (4=60-79%)

compound: Cc1nn(C)c(=O)c(-c2c(F)ccc(Cl)c2CCc2ccc3c(c2)CC(=O)N3)c1O [Compound 1.357]
result: 1 (1=0-19%)

Now for the compound whose percentage damage caused to the plant, five point scale, ZEAMX we want.
stdin: Recorded percentage damage caused to the plant, five point scale, ZEAMX for Cc1nn(C)c(=O)c(-c2c(F)ccc(Cl)c2CCc2ccc3cnn(C)c3c2)c1O [Compound 1.353] , please?
stdout: 4 (4=60-79%)

----------
tested on: Zea Mays (ZEAMX); test: B4 Pre-Emergence Efficacy Test 2; assay type: in vivo; settings: 250 g/ha, after 13 days
Items are presented alongside their recorded percentage damage caused to the plant, five point scale, ZEAMX.

Past entries and their recorded results:
smilesRepr: Cc1nn(C)c(=O)c(-c2c(F)ccc(Cl)c2CCc2ccc3ncsc3c2)c1O
result: 4 (4=60-79%)

smilesRepr: Cc1nn(C)c(=O)c(-c2c(F)ccc(Cl)c2/C=C/c2cn3ccnc3cn2)c1O
result: 2 (2=20-39%)

stdin: Recorded percentage damage caused to the plant, five point scale, ZEAMX for Cc1nn(C)c(=O)c(-c2c(F)ccc(Cl)c2CCc2ccc3ccccc3c2)c1O , please?
stdout: 1 (1=0-19%)

stdin: Recorded percentage damage caused to the plant, five point scale, ZEAMX for Cc1nn(C)c(=O)c(-c2c(F)ccc(Cl)c2CCc2nn(C)c3ccccc23)c1O , please?
stdout: 0

----------
tested on: Zea Mays (ZEAMX); assay: B2 Post-Emergence Efficacy Test 2; type: in vivo; details: 250 g/ha, after 13 days
measuredMetric: percentage damage caused to the plant, five point scale, ZEAMX

Past entries and their recorded results:
compound: Cc1nc2ccc(CCc3c(Cl)ccc(F)c3-c3c(O)c(C)nn(C)c3=O)cc2o1 [Compound 1.341]
result: 4 (4=60-79%)
//
compound: Cc1nn(C)c(=O)c(-c2c(F)ccc(Cl)c2CCc2ccc3c(c2)CC(=O)N3)c1O [Compound 1.357]
result: 5 (5=80-100%)
//
compound: Cc1nn(C)c(=O)c(-c2c(F)ccc(Cl)c2CCc2ccc3oc(=O)[nH]c3c2)c1O [Compound 1.352]
result: 3 (3=40-59%)

Now for the compound whose percentage damage caused to the plant, five point scale, ZEAMX we want.
stdin: Recorded percentage damage caused to the plant, five point scale, ZEAMX for Cc1nn(C)c(=O)c(-c2c(F)ccc(Cl)c2CCc2ccc3ncsc3c2)c1O [Compound 1.349] , please?
stdout: 2 (2=20-39%)

----------
Items are presented alongside their recorded percentage damage caused to the plant, five point scale, SETFA.
tested on: Setaria faberi (SETFA); assay: B2 Post-Emergence Efficacy Test 2; type: in vivo; conditions: 250 g/ha, after 13 days

Past entries and their recorded results:
smilesRepr: Cc1nn(C)c(=O)c(-c2c(F)ccc(Cl)c2CCc2ccc3sccc3c2)c1O
result: 4 (4=60-79%)
//
smilesRepr: Cc1nn(C)c(=O)c(-c2c(F)ccc(Cl)c2CCc2ccc3occc3c2)c1O
result: 0
//
smilesRepr: Cc1nn(C)c(=O)c(-c2c(F)ccc(Cl)c2CCc2cnc3c(ccn3C)c2)c1O
result: 4 (4=60-79%)
//
smilesRepr: Cc1nn(C)c(=O)c(-c2c(F)ccc(Cl)c2CCc2ccc3c(c2)OC(C)(C)C3)c1O
result: 5 (5=80-100%)
//
smilesRepr: Cc1nn(C)c(=O)c(-c2c(F)ccc(Cl)c2CCc2ccc3oc(=O)[nH]c3c2)c1O
result: 4 (4=60-79%)

stdin: What value of percentage damage caused to the plant, five point scale, SETFA on Setaria faberi (SETFA) does Cc1nn(C)c(=O)c(-c2c(F)ccc(Cl)c2CCc2ccc3c(ccn3C)c2)c1O have?
stdout: 5 (5=80-100%)

stdin: What value of percentage damage caused to the plant, five point scale, SETFA on Setaria faberi (SETFA) does Cc1nn(C)c(=O)c(-c2c(F)ccc(Cl)c2CCc2ccc3c(c2)OC(C)(C)O3)c1O have?
stdout: 5 (5=80-100%)

stdin: What value of percentage damage caused to the plant, five point scale, SETFA on Setaria faberi (SETFA) does Cc1nn(C)c(=O)c(-c2c(F)ccc(Cl)c2CCc2ccc3c(cnn3C)c2)c1O have?
stdout: 4 (4=60-79%)

----------
system: Zea Mays (ZEAMX); test: B4 Pre-Emergence Efficacy Test 2; type: in vivo; details: 250 g/ha, after 13 days
measuredMetric: percentage damage caused to the plant, five point scale, ZEAMX

compound: Cc1nn(C)c(=O)c(-c2c(F)ccc(Cl)c2CCc2ccc3c(c2)OC(C)(C)C3)c1O [Compound 1.340]
assayedSystem: Zea Mays (ZEAMX)
result: 3 (3=40-59%)
//
compound: Cc1nn(C)c(=O)c(-c2c(F)ccc(Cl)c2CCc2ccc3c(C)noc3c2)c1O [Compound 1.351]
assayedSystem: Zea Mays (ZEAMX)
result: 5 (5=80-100%)
//
compound: Cc1nn(C)c(=O)c(-c2c(F)ccc(Cl)c2CCc2cccc3ccccc23)c1O [Compound 1.044]
assayedSystem: Zea Mays (ZEAMX)
result: 1 (1=0-19%)
//
compound: Cc1nn(C)c(=O)c(-c2c(F)ccc(Cl)c2CCc2ccc3ccn(C)c3c2)c1O [Compound 1.355]
assayedSystem: Zea Mays (ZEAMX)
result: 1 (1=0-19%)
//
compound: Cc1nn(C)c(=O)c(-c2c(F)ccc(Cl)c2CCc2ccc3c(cnn3C)c2)c1O [Compound 1.354]
assayedSystem: Zea Mays (ZEAMX)
result: 4 (4=60-79%)

Now for the compound whose percentage damage caused to the plant, five point scale, ZEAMX we want.
stdin: What value of percentage damage caused to the plant, five point scale, ZEAMX on Zea Mays (ZEAMX) does Cc1nn(C)c(=O)c(-c2c(F)ccc(Cl)c2CCc2nc3ccccc3o2)c1O [Compound 1.359] have?
stdout: 3 (3=40-59%)
